- Assay: Inhibitor binding assay of SEQ ID NO 3 variants, Inhibitor 1, in Model B detergent
- Assay type: biochemical
- Measurement Context: in Model B relative to SEQ ID NO 3 comprising S173P + S175P + F180Y; relative Ki, IF>1.0 = lower Ki
Would you kindly list inhibitor 1 binding constant improvement factors (IF) for each of these molecules?
Form field (numeric): enter value without unit.

Entry S173P + S175P + F180Y + L184H: protease variant of SEQ ID NO 3 (protein, listed as Bacillus sp.) AVPSTQTPWGIKSIYNDQSITKTTGGSGIKVAVLDTGVYTSHLDLAGSAEQCKDFTQSNPLVDGSCTDRQGHGTHVAGTVLAHGGSNGQGVYGVAPQAKLWAYKVLGDNGSGYSDDIAAAIRHVADEASRTGSKVVINMSLGSSAKDSLIASAVDYAYGKGVLIVAAAGNSGPGPNTIGYPGGHVNAVAVAALENVQQNGTYRVADFSSRGNPATAGDYIIQERDIEVSAPGASVESTWYTGGYNTISGTSMATPHVAGLAAKIWSANTSLSHSQLRTELQNRAKVYDIKGGIGAGTGDDYASGFGYPRVK , inhibitor 1 binding constant improvement factors (IF) reported as 2.50

What the record says about K146A + S173P + S175P + F180Y: protease variant of SEQ ID NO 3 (protein, listed as Bacillus sp.) AVPSTQTPWGIKSIYNDQSITKTTGGSGIKVAVLDTGVYTSHLDLAGSAEQCKDFTQSNPLVDGSCTDRQGHGTHVAGTVLAHGGSNGQGVYGVAPQAKLWAYKVLGDNGSGYSDDIAAAIRHVADEASRTGSKVVINMSLGSSAADSLIASAVDYAYGKGVLIVAAAGNSGPGPNTIGYPGGLVNAVAVAALENVQQNGTYRVADFSSRGNPATAGDYIIQERDIEVSAPGASVESTWYTGGYNTISGTSMATPHVAGLAAKIWSANTSLSHSQLRTELQNRAKVYDIKGGIGAGTGDDYASGFGYPRVK : inhibitor 1 binding constant improvement factors (IF) is 3.72

Recorded values, source patent US20170342349A1.
